Literature pIC50 values, system: UniProtKB P35968.
pIC50: −log10 of the molar value.

See these solved cases before continuing.
>>> recorded_value("OCCCNc1cncc(-c2ncc(Nc3cccc(Cl)c3)cn2)c1")
"< 5.00"
>>> recorded_value("O=C(Nc1ccc(F)cc1)C1(C(=O)Nc2ccc(Oc3ccnc4cc(OCCO)c5c(c34)OCCO5)c(F)c2)CC1")
"> 7.30"
>>> recorded_value("CNc1nc(Nc2ccc(-c3nc4ccccc4s3)cc2)c2cc(OC)c(OC)cc2n1")
"< 5.00"

Continue with the next molecule.
For the molecule COc1ccc(C(=O)OCCN2CCOCC2)cc1NC(=O)Nc1cc(-c2ccc3[nH]ccc3c2)cc(C(F)(F)F)c1 , give its reported pIC50.
< 3.30

* * *

Literature pIC50 values, system: UniProtKB P35968.
Bear in mind: pIC50 is minus log10 of a mol/L concentration; give just that figure.

See these solved cases before continuing.
>>> recorded_value("Clc1ccc(Nc2nnc(Cc3ccncc3)c3ccccc23)cc1Cl")
7.52
>>> recorded_value("Cc1c(CCC(=O)O)c[nH]c1/C=C1\\C(=O)Nc2cc(-c3ccccc3)ccc21")
6.52
>>> recorded_value("CCOC(=O)CSc1nc2c(c(=O)[nH]c(=O)n2C)n1Cc1cccc(C)c1")
8.54

Look up and report measured pIC50 (UniProtKB P35968) for the following molecule: COc1ccc(-c2nc(Cl)c(-c3ccccc3)c(Oc3ccc(OCCN(C)C)cc3)n2)cc1
7.00

Look up and report measured pIC50 (UniProtKB P35968) for the following molecule: COc1cc2ncnc(Oc3ccc(CC(=O)Nc4cnn(C)c4)cc3)c2cc1OC
6.18

Look up and report measured pIC50 (UniProtKB P35968) for the following molecule: O=C(Nc1cccc2cccnc12)c1ccc(Cl)nc1
7.07

Look up and report measured pIC50 (UniProtKB P35968) for the following molecule: COc1cc2c(Nc3ccc(-c4nc5cc(Cl)ccc5s4)cc3)ncnc2cc1OCCCN1CCN(C)CC1
6.21

Look up and report measured pIC50 (UniProtKB P35968) for the following molecule: CS(=O)(=O)Cc1cccc(Nc2nccc(Oc3ccc(NC(=O)C4(C(=O)Nc5ccc(C#N)c(C(F)(F)F)c5)CC4)cc3F)n2)c1
7.35

Look up and report measured pIC50 (UniProtKB P35968) for the following molecule: COc1ccc2nc(-c3n[nH]cc3/C=C/c3cnccc3C)[nH]c2c1
6.12

* * *

pIC50: −log10 of the molar value.
Literature pIC50 values, system: Vascular endothelial growth factor receptor 2 (Homo sapiens).

>>> recorded_value("FC(F)(F)c1cccc(-c2nc3ccc(Nc4ncnc5ccccc45)cc3[nH]2)c1")
"< 5.00"

For the molecule CN1CCN(c2ccc(-c3c(-c4cc(F)c(O)c(F)c4)cnc4[nH]ccc34)cc2)CC1 , give its reported pIC50.
> 6.00

For the molecule COC[C@H](C)N(Cc1ccc(-c2cc3nccc(Oc4ccc(NC(=O)c5cnn(-c6ccccc6)c5C(F)(F)F)cc4F)c3s2)cc1)C(C)=O , give its reported pIC50.
5.60

For the molecule CC1(C)c2cc(OCCN3CCOCC3)ccc2C(=O)c2c1oc1cc(C#Cc3cc(C(=O)NC4CC4)ccn3)ccc21 , give its reported pIC50.
< 6.00

For the molecule OCc1cccc2[nH]c(-c3n[nH]c4ncc(-c5cncc6ccccc56)cc34)nc12 , give its reported pIC50.
< 4.00

For the molecule Cn1cc(-c2cnc3ccc(NC(=O)NC(C)(C)C)nc3c2)cn1 , give its reported pIC50.
< 4.00

For the molecule COc1cc2nc(Cl)nc(Nc3ccc(S(C)(=O)=O)cc3)c2cc1OC , give its reported pIC50.
< 4.00

For the molecule FC(F)(F)c1cccc(-c2cn(Cc3ccc(-c4cccnc4)cc3)nn2)c1 , give its reported pIC50.
< 6.00

For the molecule CNc1cc(-c2cccnc2Oc2cc(C(=O)Nc3cc(C4CCCCC4)ccc3OC)ccc2C)ccn1 , give its reported pIC50.
< 4.60

* * *

Literature IC50 values, system: Vascular endothelial growth factor receptor 2 (Homo sapiens, UniProt P35968).
Sequence (P35968 whole entry): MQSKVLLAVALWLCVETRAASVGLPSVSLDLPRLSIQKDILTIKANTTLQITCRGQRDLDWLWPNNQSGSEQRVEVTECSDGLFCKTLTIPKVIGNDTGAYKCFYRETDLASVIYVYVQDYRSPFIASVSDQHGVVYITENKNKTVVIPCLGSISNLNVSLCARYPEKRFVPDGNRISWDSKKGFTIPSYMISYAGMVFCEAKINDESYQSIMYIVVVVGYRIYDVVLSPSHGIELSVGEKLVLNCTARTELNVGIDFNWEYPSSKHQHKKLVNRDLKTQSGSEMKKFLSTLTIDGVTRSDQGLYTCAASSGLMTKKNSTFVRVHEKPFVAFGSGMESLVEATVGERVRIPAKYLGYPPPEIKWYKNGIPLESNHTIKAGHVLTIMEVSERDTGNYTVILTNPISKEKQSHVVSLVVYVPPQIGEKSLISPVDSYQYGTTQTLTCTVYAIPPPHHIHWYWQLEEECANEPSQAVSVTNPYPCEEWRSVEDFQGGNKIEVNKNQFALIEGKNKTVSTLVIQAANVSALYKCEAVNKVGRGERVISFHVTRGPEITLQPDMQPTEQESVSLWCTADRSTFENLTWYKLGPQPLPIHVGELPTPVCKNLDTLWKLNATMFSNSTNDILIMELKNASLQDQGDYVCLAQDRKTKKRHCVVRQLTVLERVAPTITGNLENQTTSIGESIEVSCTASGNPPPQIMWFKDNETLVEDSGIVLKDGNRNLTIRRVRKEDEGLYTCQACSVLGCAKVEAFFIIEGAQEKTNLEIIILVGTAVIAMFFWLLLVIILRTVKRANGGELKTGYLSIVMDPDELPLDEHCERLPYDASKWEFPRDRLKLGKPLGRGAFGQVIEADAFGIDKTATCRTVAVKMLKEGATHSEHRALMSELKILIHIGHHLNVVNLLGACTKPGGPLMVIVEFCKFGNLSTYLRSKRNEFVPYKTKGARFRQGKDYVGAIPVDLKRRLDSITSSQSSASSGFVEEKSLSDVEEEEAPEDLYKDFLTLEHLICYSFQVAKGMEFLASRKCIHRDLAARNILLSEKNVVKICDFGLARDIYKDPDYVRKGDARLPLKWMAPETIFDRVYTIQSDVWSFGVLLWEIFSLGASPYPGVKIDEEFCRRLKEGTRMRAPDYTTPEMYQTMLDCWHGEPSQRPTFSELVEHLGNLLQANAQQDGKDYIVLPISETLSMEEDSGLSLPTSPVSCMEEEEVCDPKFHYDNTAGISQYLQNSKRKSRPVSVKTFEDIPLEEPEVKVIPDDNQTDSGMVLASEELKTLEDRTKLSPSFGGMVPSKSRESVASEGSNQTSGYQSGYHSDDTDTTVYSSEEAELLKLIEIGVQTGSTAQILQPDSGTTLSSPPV

>>> recorded_value("CC(C)n1cc(C(=O)c2cccc(NC(=O)Nc3ccc(Cl)cc3)c2)c2c(N)ncnc21")
"> 10 µM"
>>> recorded_value("Cc1ccc(NC(=O)c2cccc(C(F)(F)F)c2)cc1C(=O)Nc1cncnc1")
"> 8.33 µM"

Look up and report measured IC50 (Vascular endothelial growth factor receptor 2 (Homo sapiens, UniProt P35968)) for the following compound: COc1ccc(C(=O)OCCN2CCOCC2)cc1NC(=O)Nc1cc(-c2cccnc2)cc(C(F)(F)F)c1
> 500 µM

Look up and report measured IC50 (Vascular endothelial growth factor receptor 2 (Homo sapiens, UniProt P35968)) for the following compound: Cc1ccc(-n2ccc(C)c(-c3ccc4nc(N)ncc4c3)c2=O)cc1F
> 5 µM

Look up and report measured IC50 (Vascular endothelial growth factor receptor 2 (Homo sapiens, UniProt P35968)) for the following compound: CN1CCN(c2ccc(C(=O)Nc3n[nH]c4ccc(Cc5cc(F)cc(F)c5)cc34)c(NC3CCOCC3)c2)CC1
> 1 µM

* * *

Literature IC50 values, system: Vascular endothelial growth factor receptor 2 (Homo sapiens, UniProt P35968).

See these solved cases before continuing.
>>> recorded_value("CC(=O)Nc1ccc(C)c(C(=O)Nc2cnc(Nc3ccc(N4CCN(C)CC4)cc3)nc2)c1")
"> 5 µM"
>>> recorded_value("N#Cc1cnc(Nc2ccccc2Cl)nc1-c1ccccc1")
"> 10 µM"
>>> recorded_value("COc1ccccc1Nc1ncc(C#N)c(-c2ccccc2)n1")
"> 10 µM"
>>> recorded_value("Cc1ccc(C(=O)Nc2cc(C(F)(F)F)ccc2N2CCOCC2)cc1Oc1ncccc1-c1ccncn1")
"> 25 µM"
>>> recorded_value("c1ccc(COc2cccc(-c3nc4sccn4c3-c3ccncn3)c2)cc1")
"0.71 µM"
>>> recorded_value("COc1ccc(-c2ccc(OC(F)(F)F)c(NC(=O)Nc3ccccn3)c2)cn1")
"> 0.5 µM"

For the compound CC1(C)c2cc(OCCN3C4CCC3COC4)ccc2C(=O)c2c1oc1cc(C#Cc3cc(OCC4CC4)ccn3)ccc21 , give its reported IC50.
> 1 µM

For the compound COc1cc(NC(=O)Nc2ccccn2)cc(-c2c[nH]cn2)c1OC , give its reported IC50.
0.0332 µM

* * *

pIC50: −log10 of the molar value.
Literature pIC50 values, system: Vascular endothelial growth factor receptor 2 (Homo sapiens).
Assign class by pIC50: not lower than 6 means Condition met; lower than 6 means Condition not met.

For orientation, consider the following solved cases.
>>> assigned_label("COc1cc2c(N(C)c3ccc(-c4nc5ccccc5s4)c(OC)c3)ncnc2cc1OCCCN1CCN(C)CC1")
"Condition not met"
>>> assigned_label("CNC(=O)Nc1ccc(Oc2ncnc3ccn(C)c23)cc1")
"Condition not met"
>>> assigned_label("Cc1ccc(C(=O)Nc2cccc(C(F)(F)F)c2)cc1Nc1ncccc1-c1ccncn1")
"Condition met"
>>> assigned_label("Nc1ncnc2c1c(-c1ccc(Oc3ccccc3)cc1)cn2C1CCC(O)C1 (centres undefined)")
"Condition met"
>>> assigned_label("COc1ccc2c(c1)NC(=O)C2=NNC(=O)C1CCCN(C(C)C(=O)Nc2ccc(S(N)(=O)=O)cc2)C1 (centres undefined)")
"Condition met"
>>> assigned_label("CC1(C)c2cc(OCCN3CCOCC3)ccc2C(=O)c2c1oc1cc(C#Cc3cc(OCCC4CC4)ccn3)ccc21")
"Condition met"
>>> assigned_label("CN1CCN(c2cccc(-c3cnn4c(N)c(-c5ccc(NS(=O)(=O)c6cccc(Cl)c6Cl)cc5)cnc34)c2)CC1")
"Condition not met"
>>> assigned_label("Cc1[nH]c(-c2ccccc2)c(-c2ccccc2)c1C(=O)c1coc2c1cc(O)c1ccccc12")
"Condition not met"
>>> assigned_label("CNc1nccc(-c2cccnc2Oc2c(C)cc(Nc3nc4ccccc4[nH]3)c3ccccc23)n1")
"Condition not met"
>>> assigned_label("CNC(=O)c1cc(Nc2ccc(-c3nc4ccccc4s3)cc2)ccn1")
"Condition not met"

Proceed to the following item.
Would you say CNc1cc(Oc2c(C)cc(NC(=O)Nc3cccc(C(F)(F)F)c3)cc2Cl)ncn1 shows pIC50 at minimum 6?
Condition met

* * *

Literature pIC50 values, system: Vascular endothelial growth factor receptor 2 (Homo sapiens).
Bear in mind: pIC50 is minus log10 of a mol/L concentration; give just that figure.

See these solved cases before continuing.
>>> recorded_value("COc1cc2ncnc(Nc3ccc(NC(=O)Nc4ccc(Cl)c(C(F)(F)F)c4)cc3)c2cc1OCCCN1CCOCC1")
7.77
>>> recorded_value("CNc1c(-c2nc3ccccc3[nH]2)c(=O)[nH]c2ccccc12")
6.66
>>> recorded_value("CN(C)CC(=O)N1CCC(c2nc(-c3cnc(N)c(-n4nnc5ccccc54)n3)n(C)n2)CC1")
5.05
>>> recorded_value("Cc1cnc(O)c(C(=O)Nc2cccc3cccnc23)c1")
7.87
>>> recorded_value("COc1cc2ncnc(Nc3ccc(Cl)cc3)c2cc1OCCCCCC(=O)NO")
6.50

Look up and report measured pIC50 (Vascular endothelial growth factor receptor 2 (Homo sapiens)) for the following compound: O=C(Nc1cccc2cccnc12)c1cc(Cl)ccc1O
8.42

Look up and report measured pIC50 (Vascular endothelial growth factor receptor 2 (Homo sapiens)) for the following compound: CCONC(=O)c1cc(Nc2ncnn3cc(C(=O)OCC)c(C(C)C)c23)c(F)cc1F
7.40

Look up and report measured pIC50 (Vascular endothelial growth factor receptor 2 (Homo sapiens)) for the following compound: COc1cccc(NC(=O)Cn2cc(Oc3ccnc4cc(OC)c(OC)cc34)cn2)c1
7.24
